Test system: HOP-92 NSCLC
Assay: NCI-60 one-dose screen, 48 h
Settings: 10 µM unless noted
Procedure: Growth inhibition of the HOP-92 human Non-Small Cell Lung tumor cell line is measured as a screen for anti-cancer activity. Cells are grown in 96 well plates and exposed to the test compound for 48 hours. Compounds are tested at a single concentration, which is 10^-5 M for most compounds. The reported endpoint is percent growth (GI% or GIPRCNT), where numbers from 0 - 100% represent growth inhibition, and numbers from -100% - 0 represent cell death. […]
The panel holds about 83,000 compounds, 20% with a hit somewhere; the sample as a whole holds those more often. Active and inactive are the calls of the source. The calls were made as follows: active = growth percent below 10; inactive = the rest.
Tick one outcome: T (active), F (inactive)

Cn1c(SC(C(=O)Nc2ccc(F)cc2)c2ccccc2)nc2ccccc2c1=O (centres undefined) ... F
C#C[C@]1(O)CC[C@H]2[C@@H]3CC=C4c5sc(C6CCOCC6)nc5CC[C@]4(C)[C@H]3CC[C@@]21C ... F
COc1cnc2c(c1)C(=O)c1c-2n(CCCn2ccnc2)c(=O)c2cc(OC)c(OC)cc12 ... T
CCOC(=O)/C(F)=C/C1CC1C1CCCCC1 (centres undefined) ... F
COC1=C(c2ccccc2)C(=O)C(OC)=C(c2ccccc2)C1=O ... F
CC1(COc2ccc3ncc(C#Cc4cncc(C(=O)Nc5cc(C(C)(C)C)on5)c4)n3n2)COC1 ... T
Cc1ccc(/C=C/CC(=O)Nc2ccc(C(=O)Nc3ccc(F)cc3N)cc2)cn1 ... F
CC1COc2c(N3CCN(C)CC3)c(F)cc3c(=O)c(C(=O)N/N=C/c4cc[nH]c4)cn1c23 (centres undefined) ... F

[ask] Each molecule tested received a call. Report the one for O=[N+]([O-])c1ccc(-c2nnc(SCc3ccc(O)c4ncccc34)o2)cc1 .
[reply] T
